Test system: UO-31 renal
Test: NCI-60 one-dose screen, 48 h (100 = growth as untreated, 0 = no growth, -100 = all killed)
Conditions: 10 µM unless noted
The panel holds about 83,000 compounds, 20% with a hit somewhere; the sample as a whole holds those more often.
Please provide measured growth for the entries that follow.
Numbers only, in %.

Nc1nc(-c2ccccc2)cs1 :: 75.7
COc1ccc(/C=c2\sc3n(c2=O)C2C(NN=3)N(C)C(=O)N2C)cc1 (stereo unspecified) :: 46.4
CCSc1nnc(Nc2ccc(C(C)C)cc2)s1 :: 39.5
OC1CC2c3ccccc3C1c1ccccc12 (stereo unspecified) :: 95.7
COc1ccc(-c2nc3sccn3c2-c2ccnc(NCCCNS(=O)(=O)c3ccc(F)cc3)n2)cc1 :: 4.56
Cc1cc(-c2ccccc2)c(C)n1Cc1ccc(Cl)cc1 :: 50.5
Nc1nc(Cl)c2c(ncn2Cc2ccc(CCl)cc2)n1 :: 70.5
O=S(=O)(O)CCl :: 91.6

List growth for every entry below, keeping the order given.
1. CCOC(=O)CC/C(C)=N\Nc1ccc([N+](=O)[O-])cc1
2. COc1cc(C(=O)OCCCCCCCCCCC[P+](c2ccccc2)(c2ccccc2)c2ccccc2)ccc1O
3. NC(=O)c1c(NC(=O)c2ccc(OCC3CCCO3)cc2)sc2c1CCCC2 (stereo unspecified)
4. C#CCN1C(=O)/C(=c2\sc3n(c2=O)NC2C(N=3)N(CC)C(=O)N2CC)c2ccccc21 (stereo unspecified)
5. Cc1cc2c(C(C)C)c(O)c(O)c(C=NCCCCCCC(=O)O)c2c(O)c1-c1c(C)cc2c(C(C)C)c(O)c(O)c(C=NCCCCCCC(=O)O)c2c1O

30.3
-8.76
35
47.9
28.8

For each of the molecules below, state growth.
1. CC(C)C[C@H](NC(=O)[C@@H](Cc1ccccc1)n1ccc(Nc2ccccc2)cc1=O)B(O)O
2. CC(C)[C@H](CO)Nc1nc(Nc2ccc(C(=O)NCCNS(=O)(=O)c3cccc4c(N(C)C)cccc34)c(Cl)c2)c2ncn(C(C)C)c2n1
3. O=C(CN1CCN(c2cc3c(cc2F)c(=O)c(C(=O)O)cn3C2CC2)CC1)Nc1ccc(C(=O)/C=C/c2ccc(Cl)cc2)cc1
4. NC(=O)NNC(=O)c1ccccc1
5. CC(C)CCN(CCCNc1c2c(nc3ccccc13)CCCC2)CCC(C)C

1: -44; 2: 77.2; 3: 94.6; 4: 89.8; 5: 56.5

###

Tested on: NCI-H23 lung
Test: NCI-60 one-dose screen, 48 h (100 = growth as untreated, 0 = no growth, -100 = all killed)
Conditions: 10 µM unless noted
This is part of a sample that, as a whole, favours compounds with a hit. Of some 83,000 tested, about 20% had one in any assay.
Metric: growth (%)
One number for each entry, in %.

Nc1nn2cc(-c3ccc(Cl)s3)nc2c2ccccc12 :: 102
COc1ccc(/C=C/c2nc(N3CCOCC3)c3nc(Cl)c(Cl)cc3n2)cc1OC :: 99.7

Please state, for each entry, its recorded growth.
1. CCN1C(=O)N[C@H]2[C@@H]3NC(=O)c4ccc(Cl)n4[C@@H]3C[C@]21O
2. O=C(Nc1ccc(I)cc1)c1cc([N+](=O)[O-])ccc1O
3. CCC1CCc2nc3sc(C(=O)Nc4ccccc4F)c(N)c3cc2C1 (centres undefined)

1. 6.06
2. 8.5
3. 78.2

###

Test system: HT29 colon
Assay: NCI-60 one-dose screen, 48 h (100 = growth as untreated, 0 = no growth, -100 = all killed)
Conditions: 10 µM unless noted
About 83,000 compounds went through this panel and 20% of them were active in at least one assay; those are over-represented in the sample as a whole.
Metric: growth (%)
Give bare numbers, in %.

CCSc1nnc(NC(=O)Cc2ccc(Cl)cc2)s1 :: 114
Nc1cccc2c1CN(C1CCC(=O)NC1=O)C2=O (stereo not drawn) :: 101
CCOC(=O)c1cc(/C(=N\O)c2cc(OC)c(OC)c(OC)c2)n2c(C)cccc12 :: 9.58
O=C(Nc1ccc(F)cc1)c1cc([N+](=O)[O-])ccc1O :: 61.7
Clc1ccc(/C=C/c2nc(N3CCOCC3)c3nc(Cl)c(Cl)cc3n2)cc1 :: 105
Cc1cc(Nc2nc(C(=O)Nc3ccccc3)nc3ccccc23)n[nH]1 :: 84.7
Clc1nc(-c2cccnc2)nc2sc3c(c12)CCCCCC3 :: 100
CCCCCCCCCN1C(=O)/C(=c2\sc3n(c2=O)C2C(NN=3)N(CC)C(=O)N2CC)c2ccccc21 (stereo not drawn) :: 7.96

Give growth for each listed item.
1. COc1cc(OC)c(C(=O)/C=C/c2ccc(C(F)(F)F)cc2)c(OC)c1
2. CCN(CC)CCC(=O)c1cccc2ccccc12
3. CC/C=C\C[C@H]1C/C=C2/C(=O)C(Cl)=C[C@@H]2C/C=C\CCCC(=O)O1
4. COc1ccc(Cn2cc(COc3cc(/C=C/C(=O)c4cc(OC)c(OC)c(OC)c4)ccc3OC)nn2)cc1
5. N#CC1=C(N)OC2=C(C(=O)CCC2)C1c1ccco1 (stereo not drawn)
6. COc1ccc(/C(=N\O)c2cc(OC)c(OC)c(OC)c2)c(OC)c1N

1: 26.9; 2: 110; 3: -55.6; 4: 13; 5: 109; 6: 4.28

# per-item lookup of growth; items listed below
1. COc1ccc(NC(=S)/N=c2\oc3c(OC)cccc3cc2-c2cc3ccccc3[nH]2)cc1
2. N#Cc1c(NC(=O)c2ccc([N+](=O)[O-])o2)[n+]([O-])c2cc(F)c(F)cc2[n+]1[O-]
3. C#CCC1(c2ccc(F)c(F)c2)NS(=O)(=O)c2ccccc21 (stereo not drawn)
4. CN(C)c1nc(N)c(N=O)c(N)n1
5. CCC#CC[C@H]1C/C=C2/C(=O)C=C[C@@H]2C/C=C\CCCC(=O)O1
6. COc1cc(C(=O)N2CCN(C(=O)c3ccco3)CC2)c(N)cc1OCc1ccccc1

1. 82.8
2. 102
3. 82.9
4. 117
5. -15.8
6. 107

Could you tell me growth for each of these compounds? They are listed below.
1. O=C1CCC(=O)N1Cc1ccccc1
2. Cc1cc(C)c(NC(=O)c2sc3nc4c(cc3c2N)CN(Cc2ccccc2)CC4)c(C)c1
3. C=CC(=O)N[C@H](/C=C/C(=O)OCC)Cc1ccc(-c2cc(Cl)cc(Cl)c2)cc1
4. COc1ccc(C(=O)c2cc(OC)c(OC)c(OC)c2)cc1/C=C/C(=O)c1ccc(O)cc1
5. CCCCCCCCCCCCCCCCC(Br)C(=O)O (stereo not drawn)

101
7.19
86.9
26.2
108

Report growth for every entry below.
1. COc1cc(-c2csc(NC(=O)Nc3ccc(Cl)cc3Cl)n2)cc(OC)c1OC
2. c1ccc(CCn2nnc3c(Nc4ccc(N5CCOCC5)cc4)ncnc32)cc1

10.8
81.3

# per-item lookup of growth; items listed below
1. COc1ccc(/C=C(\C#N)c2ccc([N+](=O)[O-])cc2)c2ccccc12
2. OCc1c(-c2ccccc2)nc2sccn12
3. CN1CCN(CCCOc2ccc3nc(Nc4ccc(C(F)(F)F)c(Cl)c4)ccc3c2)CC1
4. Cc1ccc(OCCn2c(C)nn(-c3ccc(Cl)cc3)c2=O)cc1
5. Cc1cc(Nc2nc(-c3ccncc3)nc3ccccc23)n[nH]1
6. O=S(=O)(NCCNc1nccc(-c2c(-c3ccccc3)nc3sccn23)n1)c1ccc(O)cc1
7. CC1=NN2C(=NC3=C(CCC/C3=C\c3ccc(Cl)cc3)C2c2ccc(Cl)cc2)S1 (stereo not drawn)
8. OC1CC2c3ccccc3C1c1ccccc12 (stereo not drawn)

[76.8, 109, -67.2, 119, 61.3, 21.4, 48.1, 110]

Provide reported growth for each item, in the same order as listed.
1. O=[N+]([O-])c1cccc(-c2cc(-c3cc(Br)ccc3O)[nH]n2)c1
2. Cc1oc2ncnc(Nc3ccccc3)c2c1C(=O)NCCO
3. C=C1C(=O)O[C@H]2[C@H]1CC/C(COC(=O)NCCc1ccc(Br)cc1)=C\CC[C@@]1(C)O[C@@H]21
4. CCOC(=O)C1=C(CSC(=S)N(C2CCCCC2)C2CCCCC2)N(C)C(=O)NC1c1ccccc1 (stereo not drawn)
5. Oc1ccc(Cl)cc1-c1cc(-c2ccc(Cl)cc2)n[nH]1
6. O=C1CCC/C=C\C[C@H]2C=CC(=O)/C2=C/C[C@H](C/C=C\CC(F)(F)F)O1

1: 48.3; 2: 106; 3: -46.7; 4: 22; 5: 103; 6: -28.9

Count: 2. Required value per item: growth.
1. O=C(O)C(=Cc1c2ccccc2cc2ccccc12)C(=O)O
2. O=C(NCCc1c[nH]c2ccccc12)C1Cc2ccccc2CN1C(=O)c1ccco1 (stereo not drawn)

105
114

###

Test system: NCI-H23 lung
Assay: NCI-60 one-dose screen, 48 h
Settings: 10 µM unless noted
This is part of a sample that, as a whole, favours compounds with a hit. Of some 83,000 tested, about 20% had one in any assay. The source made the active and inactive calls. Rule for the calls: active = growth percent below 10; inactive = the rest.
# output must be one of true for active, false for inactive

COc1cc(C2C3=C(COC3=O)Nc3c2ccc2c3CCCC2)cc2c1OCO2 (configuration not stated) :: false
COc1ccc(NC(=O)c2cc3ccccc3nc2Nc2cc(OC)c(OC)c(OC)c2)cc1 :: false
COc1cc(C(=O)OCCCCCCCCCCC[P+](c2ccccc2)(c2ccccc2)c2ccccc2)ccc1O :: true
CCCCCCCN(CCCCCCC)C(=N)c1ccc(OC)c2ccccc12 :: true
COc1ccc2c(c1)C(C)Cc1c(N(C)C)ncnc1N2C (configuration not stated) :: false

Answer briefly: the call reported for OCc1c(-c2ccccc2)nc2sccn12 in this assay.
false

Dear all, I need the recorded test outcome for COc1cc(-c2csc(NC(=O)c3cc(C(F)(F)F)cc(C(F)(F)F)c3)n2)cc(OC)c1OC , thank you.
true
